Below, each of the variants is paired with its reported protein stability index value.
B1: ZNF207 (parent)
chain: FPSAGQAQAAVQGPVGTDFKPLNS

- Variants of: B1
- measurement_protocol: protein stability index of a GFP-peptide fusion (GPS, HEK-293T) (PSI 1-6); higher = more stable;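 also: lentivirally expressed fusions sorted by FACS into six bins by GFP to DsRed ratio, PSI derived from sequencing read proportions per bin multiplied by bin number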
- conditions_used: c terminus: a fixed tail appended

item_sequence	protein stability index
FPSAGQAQAAVQGPVGTDFKPWNS [L22W]	2.69
NPSAGQAQAAVQGPVGTDFKPLNS [F1N]	4.98
FPSAGQAQAAVQGPVGTDFNPLNS [K20N]	3.72
FPSAGEAQAAVQGPVGTDFKPLNS [Q6E]	4.16
FPSAGQGQAAVQGPVGTDFKPLNS [A7G]	3.58
FPSAGQARAAVQGPVGTDFKPLNS [Q8R]	3.47
FPSAGQAQAAVQLPVGTDFKPLNS [G13L]	3.69
FPSAGQAQAAVQGPVGTDKKPLNS [F19K]	4.17
FPSAGQAQAAVQGYVGTDFKPLNS [P14Y]	3.44
FPSAGQAQAAVQGPVGFDFKPLNS [T17F]	3.05
FPSAGQAGAAVQGPVGTDFKPLNS [Q8G]	3.77
FPSTGQAQAAVQGPVGTDFKPLNS [A4T]	4.39
FPSAGQAQAAVQGPVGTDFKHLNS [P21H]	3.28
FPSAGQAQAAVQGPNGTDFKPLNS [V15N]	3.88
FPSAGQAQAAVQGPVGTDFKPLNT [S24T]	3.37
APSAGQAQAAVQGPVGTDFKPLNS [F1A]	5.04
FPSAGQAQAAVQGPVGTDFKPLLS [N23L]	2.71
FPSAGQAQAAVQGPQGTDFKPLNS [V15Q]	3.62
FPSAGQAQAAVQGPVPTDFKPLNS [G16P]	3.42
DPSAGQAQAAVQGPVGTDFKPLNS [F1D]	5.56
FPSAGQAQAAVQGPVGADFKPLNS [T17A]	3.03
FPSAGQAQAAVQGPVGTDFKPLNE [S24E]	3.77
PPSAGQAQAAVQGPVGTDFKPLNS [F1P]	4.82
FPSAGQAQAAVQGPVGYDFKPLNS [T17Y]	2.85
FPSAGQAQAHVQGPVGTDFKPLNS [A10H]	3.55
FPSAGQAQAAVQGPVGTDFKPLES [N23E]	3.44
FPSAGQAQAAVQGPVGCDFKPLNS [T17C]	3.12
FPSAGQNQAAVQGPVGTDFKPLNS [A7N]	3.94
FPSAGQAWAAVQGPVGTDFKPLNS [Q8W]	1.89
FPSAGQAQVAVQGPVGTDFKPLNS [A9V]	2.93
FPSAGQAQAAVQGPVGTDFIPLNS [K20I]	3.34
FPSAGQAQAAVQGPVGTDFKYLNS [P21Y]	3.31
FPSAGQAVAAVQGPVGTDFKPLNS [Q8V]	3.31
FPSAGSAQAAVQGPVGTDFKPLNS [Q6S]	3.65
LPSAGQAQAAVQGPVGTDFKPLNS [F1L]	5.03
FPSAGQAQAAVYGPVGTDFKPLNS [Q12Y]	2.46
FPSAGQAQLAVQGPVGTDFKPLNS [A9L]	2.62
KPSAGQAQAAVQGPVGTDFKPLNS [F1K]	4.65
FPSVGQAQAAVQGPVGTDFKPLNS [A4V]	3.9
FPSAGQAQAAVQDPVGTDFKPLNS [G13D]	3.74
FPSAGCAQAAVQGPVGTDFKPLNS [Q6C]	2.42
FPSAGQAQAANQGPVGTDFKPLNS [V11N]	3.32
FPSAGQAQAAVQPPVGTDFKPLNS [G13P]	3.57
FKSAGQAQAAVQGPVGTDFKPLNS [P2K]	4.27
FPSAGQAQAAVQGPVGTDFEPLNS [K20E]	3.98
FPSAGQAQAAVQGPVGTDFKSLNS [P21S]	3.62
